molecular target: Serine/threonine-protein kinase B-raf (Homo sapiens); test: Binding affinity to recombinant human full-length wild type B-Raf (unknown origin) assessed as WHGDVAVK accessible protease cleavage peptide level by LC-MS/MS analysis relative to control
Sequence (P15056 whole entry): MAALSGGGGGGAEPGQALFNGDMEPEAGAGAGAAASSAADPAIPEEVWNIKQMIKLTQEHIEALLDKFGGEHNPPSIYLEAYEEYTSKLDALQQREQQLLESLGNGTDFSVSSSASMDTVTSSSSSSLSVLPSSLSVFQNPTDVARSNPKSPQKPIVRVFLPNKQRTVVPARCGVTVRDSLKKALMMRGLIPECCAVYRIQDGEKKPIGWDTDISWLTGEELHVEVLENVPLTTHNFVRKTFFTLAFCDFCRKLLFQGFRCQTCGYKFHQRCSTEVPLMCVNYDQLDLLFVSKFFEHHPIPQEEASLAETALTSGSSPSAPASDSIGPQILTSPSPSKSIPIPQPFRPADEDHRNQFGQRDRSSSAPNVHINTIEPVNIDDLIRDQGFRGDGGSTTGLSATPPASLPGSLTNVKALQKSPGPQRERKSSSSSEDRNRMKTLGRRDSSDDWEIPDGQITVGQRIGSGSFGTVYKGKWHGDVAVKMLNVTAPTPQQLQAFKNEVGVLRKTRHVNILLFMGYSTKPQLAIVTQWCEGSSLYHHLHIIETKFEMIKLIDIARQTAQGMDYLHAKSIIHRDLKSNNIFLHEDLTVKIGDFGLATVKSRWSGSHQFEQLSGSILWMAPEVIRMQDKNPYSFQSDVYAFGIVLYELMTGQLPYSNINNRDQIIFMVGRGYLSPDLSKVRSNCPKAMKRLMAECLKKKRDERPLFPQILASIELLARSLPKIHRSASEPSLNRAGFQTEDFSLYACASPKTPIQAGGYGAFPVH
MEASURE: Ratio

CCN(C)S(=O)(=O)Nc1ccc(F)c(C(=O)c2c[nH]c3ncc(-c4ccc(Cl)cc4)cc23)c1F : 0.36
Nc1ncnc2c1ncn2[C@@H]1O[C@H](COP(=O)(O)OP(=O)(O)O)[C@@H](O)[C@H]1O : 0.99
CCN(C)S(=O)(=O)Nc1ccc(F)c(C(=O)c2c[nH]c3ncc(Cl)cc23)c1F : 0.5
Nc1ncnc2c1ncn2[C@@H]1O[C@H](COP(=O)(O)OP(=O)(O)NP(=O)(O)O)[C@@H](O)[C@H]1O : 0.67

What does the data say about its Ratio? Entry: Nc1ncnc2c1ncn2[C@@H]1O[C@H](COP(=O)(O)OP(=O)(O)OP(=O)(O)O)[C@@H](O)[C@H]1O
0.75

* * *

molecular target: Serine/threonine-protein kinase B-raf (Homo sapiens); assay: Binding affinity to recombinant human full-length wild type B-Raf (unknown origin) assessed as SIPIPQPFRPADEDHR accessible protease cleavage peptide level by LC-MS/MS analysis relative to control; further: test concentration or dose not given here
Record form. Attribute: Ratio. Fill in for each entry.
One number for each entry.

Reference set (4 entries):
CCN(C)S(=O)(=O)Nc1ccc(F)c(C(=O)c2c[nH]c3ncc(-c4ccc(Cl)cc4)cc23)c1F : 1.27
Nc1ncnc2c1ncn2[C@@H]1O[C@H](COP(=O)(O)OP(=O)(O)O)[C@@H](O)[C@H]1O : 1.34
Nc1ncnc2c1ncn2[C@@H]1O[C@H](COP(=O)(O)OP(=O)(O)NP(=O)(O)O)[C@@H](O)[C@H]1O : 1
CCN(C)S(=O)(=O)Nc1ccc(F)c(C(=O)c2c[nH]c3ncc(Cl)cc23)c1F : 1.45

Now for a further compound.
What does the data say about its Ratio? Entry: Nc1ncnc2c1ncn2[C@@H]1O[C@H](COP(=O)(O)OP(=O)(O)OP(=O)(O)O)[C@@H](O)[C@H]1O
0.75
